Source: patent US6881741B2

List of IC50 values.
measured-on: recombinant HCV NS5B (HCV RNA-dependent RNA polymerase) (Hepatitis C virus genotype 1b)
method-summary: biochemical
cond: related polymerase activity (Example 27 list); read-out: IC50

compound-structure-string	measured-on	IC50
Cc1ccc(C(=O)N(Cc2ccccc2Cl)c2cc(-c3ccccc3)sc2C(=O)O)cc1	recombinant HCV NS5B (HCV RNA-dependent RNA polymerase) (Hepatitis C virus genotype 1b)	< 5 µM

IC50 for Cc1ccc(C(=O)Nc2cc(-c3ccccc3)sc2C(=O)O)cc1 is 5 to 20 µM

Given item Cc1ccccc1S(=O)(=O)Nc1cc(-c2ccc(Cl)cc2Cl)sc1C(=O)O , the value recorded as its IC50 is 5 to 20 µM

Per the records, this compound ( Cc1ccc(C(=O)N(Cc2ccc(F)cc2F)c2cc(-c3ccccc3)sc2C(=O)O)cc1 ) has IC50 equal to < 5 µM

* * *

measured-on: recombinant HCV NS5B (HCV RNA-dependent RNA polymerase) (Hepatitis C virus genotype 1b, UniProt P26663)
Sequence (P26663 2420-3010 limits assumed): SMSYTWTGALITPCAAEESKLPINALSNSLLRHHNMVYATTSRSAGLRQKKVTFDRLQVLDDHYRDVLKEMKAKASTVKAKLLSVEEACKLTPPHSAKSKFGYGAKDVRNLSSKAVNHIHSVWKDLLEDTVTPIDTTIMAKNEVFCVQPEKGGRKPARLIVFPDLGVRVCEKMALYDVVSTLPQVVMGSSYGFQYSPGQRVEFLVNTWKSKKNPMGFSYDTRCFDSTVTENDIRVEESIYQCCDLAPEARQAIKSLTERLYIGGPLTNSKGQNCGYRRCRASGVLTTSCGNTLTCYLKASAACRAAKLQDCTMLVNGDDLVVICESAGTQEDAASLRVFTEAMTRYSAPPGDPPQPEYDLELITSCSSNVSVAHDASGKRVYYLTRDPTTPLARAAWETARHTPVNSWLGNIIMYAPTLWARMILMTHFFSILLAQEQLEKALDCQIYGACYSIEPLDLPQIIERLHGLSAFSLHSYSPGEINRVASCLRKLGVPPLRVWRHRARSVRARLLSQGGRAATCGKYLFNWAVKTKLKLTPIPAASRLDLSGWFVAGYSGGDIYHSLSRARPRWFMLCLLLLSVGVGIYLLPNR
method-summary: biochemical
cond: HCV polymerase activity, list of compounds of Example 27; read-out: IC50 (polymerase activity)
pIC50: −log10 of the molar value.
Readings of pIC50 for the listed molecules

Sample answers from the record:
molecule	pIC50
CC(C)N(C(=O)c1cc2c(Cl)cc(Cl)cc2[nH]1)c1cc(-c2ccccc2)sc1C(=O)O	> 5.30
CCC(=O)N(Cc1ccc(Cl)cc1)c1cc(-c2ccccc2)sc1C(=O)O	> 5.30
CC(CNC(=O)OC(C)(C)C)N(C(=O)c1ccc(Cl)cc1Cl)c1cc(-c2ccccc2)sc1C(=O)O (stereo not drawn)	> 5.30
C=CCN(C(=O)Cc1ccc(OC)cc1)c1cc(-c2ccccc2)sc1C(=O)O	< 4.70
Cc1ccccc1CN(C(=O)C1CCC1)c1cc(-c2ccccc2)sc1C(=O)O	4.70 to 5.30
CC(C)CC(=O)N(Cc1ccc(Cl)cc1)c1cc(-c2ccccc2)sc1C(=O)O	4.70 to 5.30
CC(=O)c1ccc(-c2cc(N(C(=O)C3CCC(C)CC3)C(C)C)c(C(=O)O)s2)cc1 (stereo not drawn)	> 5.30
CC(C)CC(=O)N(Cc1ccccc1Cl)c1cc(-c2ccccc2)sc1C(=O)O	4.70 to 5.30
CC1CCC(C(=O)N(c2cc(-c3ccc(F)cc3)sc2C(=O)O)C(C)C)CC1 (stereo not drawn)	> 5.30
CC(C)N(C(=O)c1ccc(Cl)cc1Cl)c1cc(C2CCNCC2)sc1C(=O)O	< 4.70

Value of pIC50 reported for the molecule O=C(O)c1sc(-c2ccccc2)cc1N(CC1CCNCC1)C(=O)c1ccccc1Cl is > 5.30

Record CCCC(=O)N(Cc1ccccc1C)c1cc(-c2ccccc2)sc1C(=O)O . Reported pIC50: 4.70 to 5.30

Lab note: measured pIC50 of O=C(O)c1sc(-c2ccccc2)cc1N(C(=O)c1ccc(Cl)cc1Cl)C1CCNC1 (stereo not drawn) was 4.70 to 5.30

// sample CC(C)CC(=O)N(Cc1ccc(F)cc1F)c1cc(-c2ccccc2)sc1C(=O)O , its pIC50 was 4.70 to 5.30

Value of measured pIC50 for the entry Cc1ccc(S(=O)(=O)Nc2cc(-c3ccccc3)sc2C(=O)NC2CCC2)cc1 : 4.70 to 5.30

Documented pIC50 of CC1CCC(C(=O)N(c2cc(-c3ccccc3)sc2C(=O)O)C(C)C)C1 (stereo not drawn) : 4.70 to 5.30

Lab book: pIC50 of CC(=O)N(Cc1ccc(C(F)(F)F)cc1)c1cc(-c2ccccc2)sc1C(=O)O noted as 4.70 to 5.30

Noted for CC1(C)OCC(N(C(=O)c2ccc(Cl)cc2Cl)c2cc(-c3ccccc3)sc2C(=O)O)CO1 : its pIC50 reads > 5.30

Entry under test: CCC(=O)N(Cc1ccc(C(F)(F)F)cc1)c1cc(-c2ccccc2)sc1C(=O)O . Its pIC50 was 4.70 to 5.30

Record CCN(C(=O)CCC(C)C)c1cc(-c2ccccc2)sc1C(=O)O , field pIC50: > 5.30

The reported pIC50 of the molecule Cc1ccc(N(C)C(=O)c2cc(-c3ccccc3)sc2C(=O)O)cc1 was 4.70 to 5.30

Form field pIC50, entry Cc1cccc(-c2cc(N(C(=O)C3CCC(C)CC3)C(C)C)c(C(=O)O)s2)c1 (stereo not drawn) : > 5.30

The molecule identified as CC(=O)N(Cc1ccc(F)cc1F)c1cc(-c2ccccc2)sc1C(=O)O registered its pIC50 at 4.70 to 5.30

Value of pIC50 reported for the molecule CCCC(=O)N(Cc1ccc(C(C)(C)C)cc1)c1cc(-c2ccccc2)sc1C(=O)O is 4.70 to 5.30

Just so you know, measured pIC50 for CC(C)(C)c1ccc(CN(C(=O)CC2CCCC2)c2cc(-c3ccccc3)sc2C(=O)O)cc1 came out at > 5.30

# molecule Cc1cc(S(=O)(=O)Nc2cc(-c3ccccc3)sc2C(N)=O)c(C)cc1Cl ; its pIC50 = > 5.30

// recorded pIC50 for O=C(O)c1sc(-c2ccccc2)cc1N(C(=O)c1ccc(Cl)cc1Cl)C1CCCC[C@@H]1O (stereo in doubt) : > 5.30

pIC50 for CCCC1CCC(C(=O)N(c2cc(-c3ccccc3)sc2C(=O)O)C(C)C)CC1 (stereo not drawn) is > 5.30

So for CC(C)(C)OC(=O)N1CCC(N(C(=O)c2ccc(Cl)cc2Cl)c2cc(-c3ccccc3)sc2C(=O)O)C1 (stereo not drawn) , the logged pIC50 turned out to be > 5.30
